System tested: CD80-CD28 interaction (Homo sapiens)
Construct: mouse Fab fragment (fusion partner)
Test details: cell free Homogenous Time Resolved Fluorescence (HTRF) assay, inhibition of the CD80-CD28 interaction
Assay type: binding
Assay context: 4 hours at room temperature, read-out: Activity (EC50 in summary form)
pEC50: −log10 of the molar value.
Property: pEC50; scope: individual compounds

Output pEC50 of COC(=O)C(=O)Nc1ccc(-n2nc3c4cccc(F)c4[nH]cc-3c2=O)cc1
5.00 to 6.00

Output measured pEC50 for this item: O=C(NC1CCN(Cc2ccccc2)CC1)c1ccc(-n2nc3c4cccc(F)c4[nH]c(C4CC4)c-3c2=O)cc1
> 6.00

Retrieve pEC50 measured for CN(C)CCCNC(=O)c1ccc(-n2nc3c4cccc(F)c4scc-3c2=O)cc1 and print it.
5.00 to 6.00

====

System tested: CD80-CD28 interaction (Homo sapiens, UniProt P33681)
Construct: mouse Fab fragment (fusion partner)
Sequence (P33681 35-242 limits assumed): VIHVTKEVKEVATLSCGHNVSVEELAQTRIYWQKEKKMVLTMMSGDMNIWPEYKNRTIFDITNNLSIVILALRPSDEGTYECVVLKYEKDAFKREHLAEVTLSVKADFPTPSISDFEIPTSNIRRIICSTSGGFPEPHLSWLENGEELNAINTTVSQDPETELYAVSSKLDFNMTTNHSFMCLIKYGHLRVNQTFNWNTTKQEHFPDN
Test details: cell free Homogenous Time Resolved Fluorescence (HTRF) assay, inhibition of the CD80-CD28 interaction
Format: binding
Assay context: 4 hours at room temperature, read-out: Activity (EC50 in summary form)
pEC50: −log10 of the molar value.
Item-by-item account of pEC50

# return recorded pEC50 for entry O=C(COCc1ccccc1)Nc1ccc(-n2nc3c4cccc(F)c4[nH]cc-3c2=O)cc1
5.00 to 6.00

State its pEC50: CCCCCNC(=S)Nc1ccc(-n2nc3c4cccc(F)c4[nH]cc-3c2=O)cc1
5.00 to 6.00

====

System tested: CD80-CD28 interaction (Homo sapiens, UniProt P33681)
Construct: mouse Fab fragment (fusion partner)
Test details: cell free Homogenous Time Resolved Fluorescence (HTRF) assay, inhibition of the CD80-CD28 interaction
Assay type: binding
Assay context: 4 hours at room temperature, read-out: Activity (EC50 in summary form)
Reported EC50 values for the following compounds.

CCOC(=O)Nc1ccc(-n2nc3c4cccc(F)c4[nH]cc-3c2=O)cc1 [Example 151]    1000 to 10000 nM

Kindly indicate its recorded EC50. Item: CCSCCNC(=O)c1ccc(-n2nc3c4cccc(F)c4[nH]cc-3c2=O)cc1 [Example 120]
< 1000 nM

Supply recorded EC50 for O=C(NCCCCN1CCCC1)c1ccc(-n2nc3c4cccc(F)c4scc-3c2=O)cc1 [Example 171] here.
< 1000 nM

Report EC50, nothing else, for this compound: O=C(CNC1CCCCNC1=O)Nc1ccc(-n2nc3c4cccc(F)c4[nH]cc-3c2=O)cc1 (centres unmarked) [Example 37]
1000 to 10000 nM

====

Each entry below lists one item and its recorded EC50 value.
System tested: CD80-CD28 interaction (Homo sapiens)
Construct: mouse Fab fragment (fusion partner)
Test details: cell free Homogenous Time Resolved Fluorescence (HTRF) assay, inhibition of the CD80-CD28 interaction
Assay type: binding
Assay context: 4 hours at room temperature, read-out: Activity (EC50 in summary form)

CN(C)CCCNC(=O)c1cccc(-n2nc3c4cccc(F)c4[nH]cc-3c2=O)c1 [Example 54]    1000 to 10000 nM
CCN(CC)CCCCNC(=O)c1ccc(-n2nc3c4cccc(F)c4[nH]cc-3c2=O)cc1Cl [Example 102]    1000 to 10000 nM
CN(C)CCCNC(=O)c1ccc(-n2nc3c4cccc(F)c4[nH]c(C4CC4)c-3c2=O)cc1 [Example 132]    < 1000 nM
CN(CC(=O)Nc1ccc(-n2nc3c4cccc(F)c4[nH]cc-3c2=O)cc1)Cc1ccccc1 [Example 49]    1000 to 10000 nM
CCOC(=O)CNC(=O)Nc1ccc(-n2nc3c4cccc(F)c4[nH]cc-3c2=O)cc1 [Example 142]    < 1000 nM

Determine from records and report EC50 for O=C(c1ccc(-n2nc3c4cccc(F)c4[nH]cc-3c2=O)cc1)N1CCN(Cc2ccc(Cl)cc2)CC1 [Example 105]
> 10000 nM

Complete the entry with EC50 for COCCCNC(=O)c1ccc(-n2nc3c4cccc(F)c4[nH]cc-3c2=O)cc1 [Example 73]
< 1000 nM

Quick one: give measured EC50 for CSCCCNC(=O)c1ccc(-n2nc3c4cccc(F)c4[nH]cc-3c2=O)cc1 [Example 128]
1000 to 10000 nM

Recall and state the measured EC50 for N[C@H]1CC[C@H](NC(=O)c2cccc(-n3nc4c5cccc(F)c5[nH]cc-4c3=O)c2)CC1 [Example 55] .
> 10000 nM

Determine from records and report EC50 for CN(C)CCOC(=O)Nc1ccc(-n2nc3c4cccc(F)c4[nH]cc-3c2=O)cc1 [Example 152]
< 1000 nM

Output measured EC50 for this item: CN(C)CCCCNC(=O)c1ccc(-n2nc3c4cccc(F)c4[nH]cc-3c2=O)cc1 [Example 81]
< 1000 nM

Answer with the recorded EC50 for the compound listed here: O=C(NCCCCN1CCCC1)c1cccc(-n2nc3c4cccc(F)c4[nH]cc-3c2=O)c1 [Example 57]
1000 to 10000 nM

Please give measured EC50 of the following entry: COCCOCC(=O)Nc1ccc(-n2nc3c4cccc(F)c4[nH]cc-3c2=O)cc1 [Example 25]
1000 to 10000 nM

Give the measured EC50 for CN1CCN(CCCNC(=O)c2ccc(-n3nc4c5ccccc5[nH]cc-4c3=O)cc2)CC1 [Example 93]
1000 to 10000 nM

Please supply the value of reported EC50 for the item CN(C)CCCN(C)C(=O)c1cccc(-n2nc3c4cccc(F)c4[nH]cc-3c2=O)c1 [Example 53]
> 10000 nM

Give the value of EC50 reported for the following: CN(C)CCCNC(=O)c1ccc(-n2nc3c4ccccc4[nH]cc-3c2=O)cc1 [Example 86]
< 1000 nM
